Target: Bcr/Abl fusion protein (Homo sapiens)
Sequence (P00519 whole entry, the tested form may be a part): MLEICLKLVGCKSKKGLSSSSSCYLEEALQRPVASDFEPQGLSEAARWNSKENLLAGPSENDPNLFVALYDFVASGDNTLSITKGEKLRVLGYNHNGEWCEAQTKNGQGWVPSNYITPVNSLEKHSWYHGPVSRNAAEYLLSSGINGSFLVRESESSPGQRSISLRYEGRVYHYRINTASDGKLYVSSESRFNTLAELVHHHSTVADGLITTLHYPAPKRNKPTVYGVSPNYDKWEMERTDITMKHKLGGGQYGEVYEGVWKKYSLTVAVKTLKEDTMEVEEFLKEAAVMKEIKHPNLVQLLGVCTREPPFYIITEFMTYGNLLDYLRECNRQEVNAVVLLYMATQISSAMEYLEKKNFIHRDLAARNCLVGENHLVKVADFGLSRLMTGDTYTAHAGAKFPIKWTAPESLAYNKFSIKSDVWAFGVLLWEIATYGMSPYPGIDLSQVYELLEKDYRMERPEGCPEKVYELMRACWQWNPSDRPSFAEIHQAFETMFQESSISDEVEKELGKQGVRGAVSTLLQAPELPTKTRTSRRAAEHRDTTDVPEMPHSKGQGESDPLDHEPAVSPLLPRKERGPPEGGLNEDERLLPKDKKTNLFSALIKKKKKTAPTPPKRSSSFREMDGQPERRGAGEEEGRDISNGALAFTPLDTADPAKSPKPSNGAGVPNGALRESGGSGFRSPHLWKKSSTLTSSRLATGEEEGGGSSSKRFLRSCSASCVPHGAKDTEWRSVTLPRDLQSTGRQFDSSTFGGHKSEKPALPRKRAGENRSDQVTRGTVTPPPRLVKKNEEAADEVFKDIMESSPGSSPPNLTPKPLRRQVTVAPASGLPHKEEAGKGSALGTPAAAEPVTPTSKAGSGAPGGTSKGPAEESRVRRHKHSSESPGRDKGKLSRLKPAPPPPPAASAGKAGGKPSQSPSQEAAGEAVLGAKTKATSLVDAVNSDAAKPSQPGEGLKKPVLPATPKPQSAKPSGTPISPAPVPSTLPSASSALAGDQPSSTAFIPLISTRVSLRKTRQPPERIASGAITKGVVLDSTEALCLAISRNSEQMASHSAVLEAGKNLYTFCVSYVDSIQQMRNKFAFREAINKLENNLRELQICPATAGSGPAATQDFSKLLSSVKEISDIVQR
Sequence (P11274 whole entry, further chain, the tested form may be a part): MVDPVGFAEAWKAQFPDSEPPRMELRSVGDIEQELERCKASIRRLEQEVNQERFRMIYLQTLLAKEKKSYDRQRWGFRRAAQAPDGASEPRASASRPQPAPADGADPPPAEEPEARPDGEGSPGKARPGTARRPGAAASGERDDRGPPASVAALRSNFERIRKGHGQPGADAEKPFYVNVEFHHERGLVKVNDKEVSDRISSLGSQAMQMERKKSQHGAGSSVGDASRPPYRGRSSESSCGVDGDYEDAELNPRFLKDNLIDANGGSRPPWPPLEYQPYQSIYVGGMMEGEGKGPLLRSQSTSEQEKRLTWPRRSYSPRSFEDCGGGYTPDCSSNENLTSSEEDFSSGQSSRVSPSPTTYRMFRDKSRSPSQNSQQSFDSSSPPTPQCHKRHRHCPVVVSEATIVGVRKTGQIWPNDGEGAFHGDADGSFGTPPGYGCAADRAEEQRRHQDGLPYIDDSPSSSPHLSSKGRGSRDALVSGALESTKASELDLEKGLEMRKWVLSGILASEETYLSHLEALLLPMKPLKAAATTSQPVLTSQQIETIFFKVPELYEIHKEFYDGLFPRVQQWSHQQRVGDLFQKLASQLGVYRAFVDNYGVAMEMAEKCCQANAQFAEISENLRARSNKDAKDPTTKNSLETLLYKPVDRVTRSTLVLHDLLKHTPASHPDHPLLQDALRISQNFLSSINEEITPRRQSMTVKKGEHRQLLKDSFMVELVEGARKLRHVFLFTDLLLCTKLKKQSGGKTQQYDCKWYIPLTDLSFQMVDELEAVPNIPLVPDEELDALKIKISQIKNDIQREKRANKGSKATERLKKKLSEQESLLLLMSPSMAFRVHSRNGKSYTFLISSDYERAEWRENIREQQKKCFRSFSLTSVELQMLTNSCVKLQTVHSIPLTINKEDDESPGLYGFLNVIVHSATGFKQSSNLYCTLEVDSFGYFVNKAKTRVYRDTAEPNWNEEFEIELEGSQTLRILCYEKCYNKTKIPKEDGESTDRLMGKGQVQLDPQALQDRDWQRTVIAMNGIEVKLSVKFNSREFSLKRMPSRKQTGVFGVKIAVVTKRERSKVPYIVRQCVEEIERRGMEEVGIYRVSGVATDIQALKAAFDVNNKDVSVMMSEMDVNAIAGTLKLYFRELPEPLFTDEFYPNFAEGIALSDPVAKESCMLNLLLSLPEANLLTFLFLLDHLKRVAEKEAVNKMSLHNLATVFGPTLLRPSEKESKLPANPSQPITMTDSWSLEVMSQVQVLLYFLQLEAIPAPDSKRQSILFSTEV
Test: Inhibition of Bcr-Abl (unknown origin) after 1 hr by luminescence assay
Measured parameter: IC50 (µM)

>>> endpoint_value("COc1ccc(Nc2cc(-c3ccc(C(=O)NCCNC(=O)c4cccc(C(F)(F)F)c4)cc3)ncn2)cc1")
2.59
>>> endpoint_value("COc1ccc(Nc2cc(-c3ccc(C(=O)N4CCN(C(=O)c5ccccc5F)CC4)cc3)ncn2)cc1")
8.96
>>> endpoint_value("COc1ccc(Nc2cc(-c3ccc(C(=O)NCCNC(=O)c4ccccc4Cl)cc3)ncn2)cc1")
9.24
>>> endpoint_value("COc1ccc(Nc2cc(-c3ccc(C(=O)NCCNC(=O)c4c(F)cccc4Cl)cc3)ncn2)cc1")
6.2
>>> endpoint_value("COc1ccc(Nc2cc(-c3ccc(C(=O)NCCNC(=O)c4cccc(N(C)C)c4)cc3)ncn2)cc1")
9.25
>>> endpoint_value("COc1ccc(Nc2cc(-c3ccc(C(=O)NCCNC(=O)c4cccc(F)c4)cc3)ncn2)cc1")
11.3

// data source = ChEMBL document CHEMBL3616476
